tested on: Kocuria rhizophila (DSM 348); conditions: serial 2-fold dilution, 1% TSB, overnight 37°C, triplicate; lowest concentration inhibiting growth in at least two repetitions
Where a SMILES comes first, the peptide text is derived from it.
resultType: MIC K. rhizophila (µM)
Respond numerically; units are µM and should not be typed.

Summary line: CC(C)C[C@H](NC(=O)[C@H](C)NC(=O)[C@H](CCCCN)NC(=O)[C@H](CC(C)C)NC(=O)[C@H](C)NC(=O)[C@H](CC(C)C)NC(=O)[C@H](CCCCN)NC(=O)[C@H](CC(C)C)NC(=O)[C@H](C)NC(=O)[C@H](CC(C)C)NC(=O)[C@@H](N)CCCCN)C(=O)N[C@@H](CCCCN)C(=O)N[C@@H](C)C(=O)N[C@@H](C)C(=O)N[C@@H](CC(C)C)C(=O)N[C@@H](CCCCN)C(=O)N[C@@H](CC(C)C)C(=O)N[C@@H](C)C(N)=O , Kocuria rhizophila (DSM 348), reported MIC K. rhizophila = 0.4

GET /values?item= CC[C@H](C)[C@H](NC(=O)[C@H](C)NC(=O)CNC(=O)[C@H](C)NC(=O)[C@H](CCCCN)NC(=O)[C@H](CO)NC(=O)[C@H](C)NC(=O)[C@H](CCSC)NC(=O)CN)C(=O)N[C@@H](C)C(=O)NCC(=O)N[C@@H](CCCCN)C(=O)N[C@H](C(=O)N[C@@H](C)C(=O)N[C@@H](CCCCN)C(=O)N[C@H](C(=O)N[C@@H](C)C(=O)N[C@@H](CC(C)C)C(=O)N[C@@H](CCCCN)C(=O)N[C@@H](C)C(=O)N[C@@H](CC(C)C)C(N)=O)C(C)C)[C@@H](C)CC [PGLa] (H-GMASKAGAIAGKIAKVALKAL-NH2) &system= Kocuria rhizophila (DSM 348) returns MIC K. rhizophila: 4.1

The recorded MIC K. rhizophila with Kocuria rhizophila (DSM 348) for CC[C@H](C)[C@H](NC(=O)[C@H](CCCCN)NC(=O)[C@H](CCCCN)NC(=O)[C@H](Cc1ccccc1)NC(=O)[C@H](CC(C)C)NC(=O)[C@H](CCCCN)NC(=O)[C@@H](N)CCCCN)C(=O)N[C@@H](CC(C)C)C(=O)N[C@@H](CCCCN)C(=O)N[C@@H](Cc1ccc(O)cc1)C(=O)N[C@@H](CC(C)C)C(N)=O was 3.2

For N=C(N)NCCC[C@H](NC(=O)CN)C(=O)N[C@@H](CCCCN)C(=O)N[C@@H](CCCCN)C(=O)N[C@@H](CCCNC(=N)N)C(=O)N[C@@H](CCCNC(=N)N)C(=O)N[C@@H](CCC(N)=O)C(=O)N[C@@H](CCCNC(=N)N)C(=O)N[C@@H](CCCNC(=N)N)C(=O)N[C@@H](CCCNC(=N)N)C(=O)N1CCC[C@H]1C(=O)N1CCC[C@H]1C(=O)N[C@@H](CCC(N)=O)C(=O)O on Kocuria rhizophila (DSM 348), measured MIC K. rhizophila was 125
